This collection of values is drawn from ChEMBL document CHEMBL1201862.

- Tested on: HOP-92
- assay.explanation: NCI tumour cell line growth inhibition, 48 h
Active and inactive are the calls of the source. Rule as the data show it: active = GI50 up to about 1.1 µM and inactive = higher.
Answer with one of the outcomes active, inactive

compound=COc1ccc2c(c1)CCCN2CCCCCCCCCCN(CCC(C)C)CCC(C)C classification=inactive
compound="O=S(=O)(O)C(CO)c1ccccc1.O=S(=O)(O)Cc1ccccc1 (centres undefined)" classification=inactive
compound=CC(=O)O/N=C/c1c2ccccc2cc2ccccc12 classification=inactive
compound="C[C@H](NC(=O)C(Cc1ccccc1)(Cc1ccc(O)cn1)NC(=O)c1ccccc1)c1ccccc1 (some centres undefined)" classification=inactive
compound=O=C(O/N=C1/CCCC/C1=C\c1ccccc1)c1ccc(Cl)cc1 classification=inactive
compound=CCCCCCOc1ccc(C(=O)N(C)O)cc1 classification=inactive
compound=Cc1nc2ccccc2c(=O)n1/N=C(\N=N\c1cc(Cl)ccc1Cl)c1cccc(-c2ccco2)c1 classification=inactive
compound=CN(C)CCCNC(=O)c1cc(NC(=O)c2cc(NS(=O)(=O)c3ccc4c(c3)C(=O)c3ccccc3C4=O)cn2C)cn1C classification=inactive
compound="CN(CC(N)=O)C(=O)N(CCCl)N=O [SARCNU]" classification=inactive
compound=CCOC(=O)C(=C=C=C(c1ccccc1)c1ccccc1)C(=O)OCC classification=inactive

For CC(=O)OCC1OC(n2c(-c3ccccc3)c(/N=N/c3ccc(C)cc3)c(C)c(C#N)c2=S)C(OC(C)=O)C(OC(C)=O)C1OC(C)=O (centres undefined) , which call appears in the assay record?
active

###

- Test system: K562
- assay.explanation: NCI tumour cell line growth inhibition, 48 h
Activity calls are given as the source filed them. No stated cut-off is given here; in the data, active = GI50 up to about 1.1 µM and inactive = higher.
Please answer using one outcome listed in class 1 for active, class 0 for inactive

Some solved cases for reference:
molecule="COc1c(C)cc2c(c1O)C1C3[C@H]4SC[C@@]5(NCCC6=C5NC5C=CC=CC65)C(=O)OCC(c5c6c(c(C)c(OC(C)=O)c54)OCO6)N3[C@@H](O)C(C2)N1C (stereo partly specified)" classification="class 1"
molecule="OC(CBr)C(O)C(O)C(O)CBr (stereo unspecified)" classification="class 0"
molecule="C[C@H]1CC(=O)C[C@@H]2CC[C@@H]3[C@H](CC[C@]4(C)C(OC(=O)c5cccc6c(=O)c7ccccc7[nH]c56)CC[C@@H]34)[C@]21C (stereo partly specified)" classification="class 0"
molecule=Cc1ccc(/C(=C\C(=O)C(=O)NC23CC4CC(CC(C4)C2)C3)Sc2ccccc2)cc1 classification="class 0"
molecule="CC12NC(=C(C#N)C#N)C(C#N)=C3NC(N)=C(C#N)C(=C31)Oc1ccccc12 (stereo unspecified)" classification="class 0"
molecule=COC(=O)NNc1c([N+](=O)[O-])cnn(-c2ccccc2)c1=O classification="class 1"

Entry CCC(C)[C@H]1C(=O)N=C(N)N1C(=O)OCc1ccccc1 (stereo partly specified) : call = ?
class 0

Dear all, I need the recorded test outcome for Cc1cccc(C)c1NC(=O)CCc1nnc2s/c(=C\c3ccc(N(C)C)cc3)c(=O)n12 , thank you.
class 0

How did this test come out for O/N=C1\Nc2ccccc2OCc2cc(Br)c(Br)cc2COc2ccccc2N\C1=N/O ?
class 0

# outcome recorded in this test, key = C[C@]12CC[C@H]3[C@@H](CCC4=C(Br)C(=O)C=C[C@@]43O)[C@@H]1CCC2=O
class 0

###

- Tested on: HL-60
- assay.explanation: NCI tumour cell line growth inhibition, 48 h
Calls of active or inactive are those of the source. Rule as the data show it: active = GI50 up to about 1.1 µM and inactive = higher.
Each entry below lists one item and its recorded GI50 value.

molecule=O=C1OC(c2cccc(C(F)(F)F)c2)(c2cccc(C(F)(F)F)c2)c2ccc3ccccc3c21 val="3.56 µM (inactive)"
molecule=CCCCCCC(=O)OC[n+]1ccc2c(C)c3[nH]c4ccccc4c3c(C)c2c1 val="2.23 µM (inactive)"
molecule="[O-][S+]1c2ccccc2N=C(c2ccc(Cl)cc2)CC1c1cccs1 (stereo not given)" val="14.2 µM (inactive)"
molecule=CCc1[nH]c(=O)nc(N)c1-c1ccc(N2CCCCC2)c([N+](=O)[O-])c1 val="88.7 µM (inactive)"
molecule=NC1=NS(=O)(=O)Nc2nc(-c3ccc([N+](=O)[O-])cc3)[nH]c21 val="> 100 µM (inactive)"

Entry COc1ccc2c(c1)C(=O)CC(C(N)=O)C2 (stereo not given) : reported GI50 = ?
> 100 µM (inactive)

Entry C=C1C[C@]23CC[C@@H]4C(CO)(CO)CC(=O)C[C@]4(C)[C@@H]2CC[C@H]1C3 : reported GI50 = ?
> 100 µM (inactive)

Could you tell me which GI50 is on file for O=C(O)c1cc(Sc2ccc([N+](=O)[O-])c(C(=O)O)c2)ccc1[N+](=O)[O-] ?
> 100 µM (inactive)

Fill blank: measured GI50 of the molecule S=C1NCCN1C(=S)Nc1ccccc1 is ____.
> 100 µM (inactive)

What measured GI50 goes with O=S(=O)(O)Nc1ccc(-c2nc3ccccc3s2)cc1Cl ?
> 100 µM (inactive)

###

- Test system: U-251
- assay.explanation: NCI tumour cell line growth inhibition, 48 h
The source made the active and inactive calls. Cut-off read from the data, not from the text of the source: active = GI50 up to about 1.1 µM and inactive = higher.
Return exactly one item of class 1 (active), class 0 (inactive)

What did this assay record as the result for CC(=O)O/N=C/c1c2ccccc2cc2ccccc12 ?
class 0

For Cc1c(N(C)C)ccc2c(=O)c3cccc(CC(=O)O)c3oc12 , what call appears in the results of this test?
class 0

Recorded test call requested for CCOC(=O)NNC(=O)NCCNC(=O)NNC(=O)OCC
class 0

In this assay, the call recorded for CC(=O)Oc1ccc(O)c(O)c1C/C=C(\C)CC/C=C(\C)CC/C=C(\C)CCC=C(C)C [TETRAPRENYLPHENOLSUILLIN] was what?
class 1

Kindly provide the recorded test outcome for the following compound: O=C(O)CSC(CC1(c2ccc(Cl)cc2)NC(=O)CS1)c1ccc(Cl)cc1 (centres undefined)
class 0

Per the assay record, what outcome was assigned to N#CC1CCCCOCCOCCOCCOCCOCCCCCC1=O (centres undefined) ?
class 0

Record lookup: outcome of this test for N#CC1(C#N)C2C=CC(C3CC=CC32)C1(C#N)C#N (centres undefined) ?
class 0

Please state the recorded outcome for this compound: CC(C)CC(=O)NC(Nc1ccc(S(=O)(=O)Nc2ncccn2)cc1)(C(F)(F)F)C(F)(F)F
class 0

Hey, what did the test say about CC(=O)C1C(=O)C(=O)N(CCN2C(=O)C(=O)C(C(C)=O)C2=O)C1=O (centres undefined) ?
class 0

###

- System: SNB-78
- assay.explanation: NCI tumour cell line growth inhibition, 48 h
Activity calls are given as the source filed them. Cut-off read from the data, not from the text of the source: active = GI50 up to about 1.1 µM and inactive = higher.
Just give me one of these, please: active, inactive

These recorded examples may help you get a feel for the data.
compound=CCCCCCC(=O)OC[n+]1ccc2c(C)c3[nH]c4ccccc4c3c(C)c2c1 classification=active
compound="CCOC(=O)C1Nc2ccc([N+](=O)[O-])cc2[C@H]2OCC[C@@H]12 (some centres not stated)" classification=inactive
compound=FC(F)(F)c1ccc2c(c1)N(CCCNCCN1CCOCC1)c1ccccc1S2 classification=inactive

Just curious, what result did Cc1cc(O)nc(NN2C(Cl)C(=O)C2c2ccc(Cl)cc2)n1 (configuration not stated) get here?
inactive

Tell me the assay call for Cc1ccc(NC(=O)C(=O)C2NC(=S)NC2=O)c([N+](=O)[O-])c1 (configuration not stated) please.
inactive

Dear all, I need the recorded test outcome for CCC(=O)NCC1(c2c[nH]c3ccccc23)SCCS1 , thank you.
inactive

Lab log entry: CC1NCCc2c1[nH]c1cc(O)ccc21 (configuration not stated) — outcome as called in the assay?
inactive

Give the logged outcome of this assay for the following compound: O=C(NO)C12C3C4C1C1C2C3C41C(=O)NO (configuration not stated)
inactive

Given CCN(CC)CCC(=O)Nc1ccc2c(c1)C(=O)c1ccc(NC(=O)CCN(CC)CC)cc1C2=O , state the outcome it received in this test.
inactive

###

- Test system: HCC 2998
- assay.explanation: NCI tumour cell line growth inhibition, 48 h
Activity calls are given as the source filed them. Cut-off read from the data, not from the text of the source: active = GI50 up to about 1.1 µM and inactive = higher.
test.readout: GI50

What does the record list as GI50 for COc1ccccc1CC(C)N (stereo unspecified) ?
> 100 µM (inactive)

###

- Tested on: SK-MEL-2
- assay.explanation: NCI tumour cell line growth inhibition, 48 h
The source made the active and inactive calls. No stated cut-off is given here; in the data, active = GI50 up to about 1.1 µM and inactive = higher.
Form field: GI50 (one value per entry).

Below are worked cases with known answers.
compound=COC1=C(OC)C(=O)C(Cc2c(-c3ccccc3)nc3sc(Cl)cn23)=C(C)C1=O test_readout=GI50 val="15.6 µM (inactive)"
compound=COc1cc2c(cc1OC)C/C(=N\O)c1cc(OC)c(OC)cc1/C=C\2 test_readout=GI50 val="3.44 µM (inactive)"
compound=CCOC(=O)NNC(=O)NCCNC(=O)NNC(=O)OCC test_readout=GI50 val="> 100 µM (inactive)"
compound=Cn1nc2ccc3nccc(N(CCO)CCO)c3c2n1 test_readout=GI50 val="> 100 µM (inactive)"
compound="COC(=O)c1c2c(cc3c1CC1(Cc4cc5c(c(C=O)c4C1)CCC5)C3)CCC2 (stereo unspecified)" test_readout=GI50 val="23.8 µM (inactive)"

Request the reported GI50 associated with O=C(OCc1ccccc1)N(CCCCN(CCCNC(=O)C(F)(F)F)C(=O)OCc1ccccc1)CCCNC(=O)C(F)(F)F
> 100 µM (inactive)

What value of measured GI50 is listed for CC(C)OP(=O)(OC(C)C)c1nc(-c2ccccc2)n(-c2ccc([N+](=O)[O-])cc2)n1 ?
50.8 µM (inactive)

Fill blank: measured GI50 of the compound O=C(O)CCN1C(=S)CSC1=S is ____.
> 100 µM (inactive)

Sample CC(C)OP(=O)(OC(C)C)C(C(C)C)N(C)/C(N)=N/C#N (stereo unspecified) — what was its GI50?
> 100 µM (inactive)

What value of GI50 has been reported for the following compound? O=C(Cc1ccccc1)NN1C(=O)/C(=C\c2ccccc2O)S/C1=N\c1ccccc1
> 100 µM (inactive)
